- Assay Name: Stability in Simulated Gastric Fluid (SGF)
- Type: in vitro ADME
- Set-up: key: % parent compound remaining relative to 0-minute sample
- Condition Parameters: simulated gastric fluid, at 1 h
molecules and their reported SGF
Numbers only here, please. The scale is % remaining.

| Molecule | Observed Property | Unit Tag | Quantitative Readout |
| --- | --- | --- | --- |
| Cc1cccc(N(C)C(=O)OCn2ccc3c2c(=O)[nH]c(=S)n3CCOC(C)C)c1 [Example 252] | SGF | % remaining | 100 |

The record that follows has no SGF shown yet.
Q) Given Cc1ccccc1N(C)C(=O)OCn1c(=O)c2c(ccn2COC(=O)N(C)c2ccccc2C)n(CCOC(C)C)c1=S [Example 244] , state its recorded SGF.
A) 98
